test system: A549 cells; test: Cell migration assay (24-well transwell, laminin); assay type: cell-based, human; conditions: Homo sapiens, A549, 6 h, laminin 10 μg/mL in lower well, test compounds 0.39˜100 μM, migrated cells counted, read-out: Inhibitory activity against cell migration
pIC50: −log10 of the molar value.
# pIC50 listing for each entry below
PROPERTY_NAME: pIC50

MOLECULE: CC(c1ccc(C(=O)O)cc1)N(CCc1ccc(F)cc1F)c1nc2cccc(F)c2s1 (centres unmarked)
ASSAY_SYSTEM: A549 cells
RESULT: < 5.00
//
MOLECULE: COc1ccc(CCN(Cc2ccc(C(=O)O)cc2)c2nc3cc(F)c(F)cc3s2)cc1
ASSAY_SYSTEM: A549 cells
RESULT: > 6.00
//
MOLECULE: COc1ccc(CCN(c2nc3ccc(F)c(F)c3s2)C(C)c2ccc(C(=O)O)cc2)cc1 (centres unmarked)
ASSAY_SYSTEM: A549 cells
RESULT: < 5.00
//
MOLECULE: CCC(c1ccc(C(=O)O)cc1)N(CCc1ccc(OC)c(C)c1C)c1nc2cccc(F)c2s1 (centres unmarked)
ASSAY_SYSTEM: A549 cells
RESULT: < 5.00
//
MOLECULE: CCOc1ccc(CCN(Cc2ccc(C(=O)O)cc2)c2nc3cccc(F)c3s2)cc1OC
ASSAY_SYSTEM: A549 cells
RESULT: < 5.00
//
MOLECULE: COc1ccc(CCN(c2nc3cc(F)cc(F)c3s2)C(C)c2ccc(C(=O)O)cc2)cc1 (centres unmarked)
ASSAY_SYSTEM: A549 cells
RESULT: < 5.00
//
MOLECULE: COc1ccc(CCN(Cc2ccc(C(=O)O)cc2)c2nc3ccc(C)c(F)c3s2)cc1
ASSAY_SYSTEM: A549 cells
RESULT: > 6.00
//
MOLECULE: COc1ccc(CCN(c2nc3cc(F)cc(F)c3s2)C(C)c2ccc(C(=O)O)cc2)cc1F (centres unmarked)
ASSAY_SYSTEM: A549 cells
RESULT: > 6.00

----------
system: A549 cells; assay: Cell migration assay (24-well transwell, laminin); type: cell-based, human; conditions: Homo sapiens, A549, 6 h, laminin 10 μg/mL in lower well, test compounds 0.39˜100 μM, migrated cells counted, read-out: Inhibitory activity against cell migration
pIC50: −log10 of the molar value.
# pIC50 listing for each entry below
PROPERTY_NAME: pIC50

MOLECULE: COc1ccc(CCN(Cc2ccc(C(=O)O)cc2)c2nc3cccc(F)c3s2)cc1C
PROPERTY_NAME: pIC50
RESULT: > 6.00

MOLECULE: COc1ccc(CCN(Cc2ccc(C(=O)O)cc2)c2nc3cccc(F)c3s2)cc1OC
PROPERTY_NAME: pIC50
RESULT: > 6.00

MOLECULE: CN(C)c1ccc(CCN(Cc2ccc(C(=O)O)cc2)c2nc3cccc(F)c3s2)cc1
PROPERTY_NAME: pIC50
RESULT: > 6.00

MOLECULE: COc1ccc(CCN(c2nc3cccc(F)c3s2)C(C)c2ccc(C(=O)O)cc2)c(C)c1 (centres unmarked)
PROPERTY_NAME: pIC50
RESULT: > 6.00

MOLECULE: O=C(O)c1ccc(CN(CCc2ccc(OCC3CCC3)cc2)c2nc3cccc(F)c3s2)cc1
PROPERTY_NAME: pIC50
RESULT: 5.00 to 6.00

MOLECULE: COc1ccc(CCN(c2nc3c(F)cc(F)cc3s2)C(C)c2ccc(C(=O)O)cc2)cc1 (centres unmarked)
PROPERTY_NAME: pIC50
RESULT: < 5.00

MOLECULE: O=C(O)c1ccc(CN(CCc2ccccc2F)c2nc3cccc(F)c3s2)cc1
PROPERTY_NAME: pIC50
RESULT: < 5.00

MOLECULE: CCC(c1ccc(C(=O)O)cc1)N(CCc1ccc(OC)c(C)c1)c1nc2cccc(F)c2s1 (centres unmarked)
PROPERTY_NAME: pIC50
RESULT: < 5.00

Values compiled from patent US10383859B2.
